Experimental system: P2X7 receptor (Homo sapiens (Human))
Sequence (Q99572 whole entry): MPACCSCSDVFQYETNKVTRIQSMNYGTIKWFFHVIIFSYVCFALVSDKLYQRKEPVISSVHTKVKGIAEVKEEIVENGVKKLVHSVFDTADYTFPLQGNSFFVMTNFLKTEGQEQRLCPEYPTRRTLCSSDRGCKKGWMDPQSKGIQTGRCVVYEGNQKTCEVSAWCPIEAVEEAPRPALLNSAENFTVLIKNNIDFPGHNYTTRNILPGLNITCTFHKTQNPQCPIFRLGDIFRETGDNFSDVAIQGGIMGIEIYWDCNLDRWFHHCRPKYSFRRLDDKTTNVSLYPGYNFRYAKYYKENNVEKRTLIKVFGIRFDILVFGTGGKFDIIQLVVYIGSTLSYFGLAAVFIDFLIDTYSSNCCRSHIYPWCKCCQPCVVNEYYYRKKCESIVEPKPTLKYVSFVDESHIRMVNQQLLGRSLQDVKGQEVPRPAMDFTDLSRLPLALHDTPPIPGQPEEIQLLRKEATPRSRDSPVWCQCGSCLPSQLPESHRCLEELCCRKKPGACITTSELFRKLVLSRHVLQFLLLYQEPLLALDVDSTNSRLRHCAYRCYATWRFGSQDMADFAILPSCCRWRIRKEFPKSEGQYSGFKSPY
Assay text: P2X7 FLIPR assay: antagonism of BzATP response in 293 HEK cells stably expressing P2X7 receptor
Condition details: FLIPR fluorescence (Fluo-4), agonist BzATP, 293 HEK cells stably transfected with P2X7 receptor
pIC50: −log10 of the molar value.
Would you mind labelling by pIC50? At or over 8 is class 1, under is class 0.

Given the entry COc1ccc(F)c(C(=O)NCC(c2cnc(C(F)(F)F)nc2)N2CCC(F)(F)CC2)c1Cl (single isomer, unassigned; (-)) [(−)2-chloro-N-[2-(4,4-difluoro-1-piperidyl)-2-[2-(trifluorom] , answer whether its pIC50 meets or surpasses 8.
class 0

State whether the measured pIC50 reaches 8, counting equality as reaching it, for Cc1ncc(C(CNC(=O)c2cccc(F)c2Cl)N2CCCC(F)(F)C2)cn1 (single isomer, unassigned; (+)) [(+)2-chloro-N-[2-(3,3-difluoro-1-piperidyl)-2-(2-methylpyrim]
class 0

Please tell me: is the compound Cc1ncc(C(CNC(=O)c2c(Cl)cccc2Cl)N2CCC(F)(F)CC2)cn1 (single isomer, unassigned; (-)) [(−)2,6-dichloro-N-[2-(4,4-difluoro-1-piperidyl)-2-(2-methylp] at or over 8 in terms of pIC50?
class 0

hey, is pIC50 for this one >= 8? Cc1cccc(C(=O)NCC(c2ccc(Cl)cc2)N2CCC(F)(F)CC2)c1C (centres unmarked)
class 1

Is the recorded value of pIC50 equal to or greater than 8 for this compound? O=C(NCC(c1ccc(C(F)(F)F)nc1)N1CCC(F)(F)CC1)c1c(F)cccc1Cl (single isomer, unassigned; (-)) [(−)2-chloro-N-[2-(4,4-difluoro-1-piperidyl)-2-[6-(trifluorom]
class 1
